# Test system: human delta subtype 2 opioid receptor (Homo sapiens)
# Construct: purchased Perkin Elmer RBHODM400UA; host or cells: Chinese Hamster Ovary cells (recombinant expression)
# Sequence (P41143 whole entry): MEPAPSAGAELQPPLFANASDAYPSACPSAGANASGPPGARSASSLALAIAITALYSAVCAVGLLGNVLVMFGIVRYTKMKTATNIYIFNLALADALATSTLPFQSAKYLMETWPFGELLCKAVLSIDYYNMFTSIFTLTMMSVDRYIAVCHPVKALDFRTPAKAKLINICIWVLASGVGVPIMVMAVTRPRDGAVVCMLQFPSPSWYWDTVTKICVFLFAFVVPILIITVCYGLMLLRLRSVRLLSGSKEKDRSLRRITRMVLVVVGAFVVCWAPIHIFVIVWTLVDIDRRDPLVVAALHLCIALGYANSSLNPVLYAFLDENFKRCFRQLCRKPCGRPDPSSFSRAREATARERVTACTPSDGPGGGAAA
# Test method notes: Human Delta Opioid Receptor Binding Assay (CHO membranes, 3H-Naltrindole)
# Condition info: read-out: hKi δ
pKi: −log10 of the molar value.
The entries below come with measured pKi values attached.
Test readout: pKi

> print(dat)
                                   molecule  test.readout  readout.relation  value.measured
1  Cc1cc(O)cc(C)c1C[C@H](N)C(=O)N(Cc1nc(-c2ccc(S(C)(=O)=O)cc2)c(C)[nH]1)C(C)C           pKi                 =            7.16
2  Cc1cc(O)cc(C)c1C[C@H](N)C(=O)N(Cc1c(Cl)cccc1Cl)[C@@H](C)c1nc(-c2ccccc2)c[nH]1           pKi                 =            8.20
3  COC(=O)c1ccc(CN(C(=O)[C@@H](N)Cc2c(C)cc(C(N)=O)cc2C)[C@@H](C)c2nc(-c3ccccc3)c[nH]2)cc1           pKi                 =            6.95
4  COc1ccc(CN(C(=O)[C@@H](N)Cc2c(C)cc(C(N)=O)cc2C)[C@@H](C)c2nc(-c3ccccc3)c[nH]2)cc1OC           pKi                 =            8.07
5  Cc1cc(O)cc(C)c1C[C@H](N)C(=O)N(Cc1ccc(Cl)cc1Cl)[C@@H](C)c1nc(-c2ccccc2)c[nH]1           pKi                 =            8.01
6  Cc1cc(O)cc(C)c1C[C@H](N)C(=O)N[C@@H](CO)c1nc(-c2ccccc2)c[nH]1           pKi                 <            5.00
7  Cc1cc(O)cc(C)c1CC(N)C(=O)N(Cc1ccccc1)C(C)c1nc(-c2ccc(F)cc2)c[nH]1 (stereo not drawn)           pKi                 =            7.32
8  Cc1cc(O)cc(C)c1C[C@H](N)C(=O)N(Cc1ccoc1)[C@@H](C)c1nc(-c2ccccc2)c[nH]1           pKi                 =            7.36
9  N[C@@H](Cc1ccc(O)cc1)C(=O)N(Cc1nc(-c2ccccc2)c[nH]1)CC1CC1           pKi                 <            5.00

###

# Test system: delta opioid receptor (Rattus norvegicus)
# Construct: from tissue; host or cells: forebrain of male Wistar rats
# Sequence (P33533 whole entry): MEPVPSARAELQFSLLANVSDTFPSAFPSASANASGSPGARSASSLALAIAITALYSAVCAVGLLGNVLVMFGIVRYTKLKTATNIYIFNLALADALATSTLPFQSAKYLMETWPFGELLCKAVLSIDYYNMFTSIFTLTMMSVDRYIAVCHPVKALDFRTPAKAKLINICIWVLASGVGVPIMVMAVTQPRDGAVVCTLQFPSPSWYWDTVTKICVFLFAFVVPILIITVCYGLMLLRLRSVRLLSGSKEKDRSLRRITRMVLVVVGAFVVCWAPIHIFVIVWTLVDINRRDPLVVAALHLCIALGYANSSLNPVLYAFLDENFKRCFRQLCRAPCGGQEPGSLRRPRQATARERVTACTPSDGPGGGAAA
# Test method notes: Rat Brain Delta Opioid Receptor Binding Assay ([3H]DPDPE)
# Condition info: rat forebrain membranes, margin of error 10-20%, read-out: r Ki δ
Each record's class is read off its Ki using these ranges: 0: < 8 nM; 1: ≥ 8 nM and < 50 nM; 2: ≥ 50 nM

> print(dat)
                       smiles.representation  category
 1  CCN(C(=O)[C@@H](N)Cc1c(C)cc(O)cc1C)[C@H](C)c1nc(-c2ccccc2)c[nH]1         0
 2  COC(=O)c1cc(CN(C(=O)[C@H](N)Cc2ccc(C(N)=O)cc2)[C@H](C)c2nc(-c3ccccc3)c[nH]2)ccc1OC         2
 3  CC(C)[C@H](NC(=O)[C@@H](N)Cc1cccc(C#N)c1)c1nc(-c2ccccc2)c[nH]1         2
 4  Cc1cc(O)cc(C)c1C[C@H](N)C(=O)N(Cc1ccccc1)[C@@H](C)c1nc(-c2ccccc2)c[nH]1         0
 5  Cc1cc(O)cc(C)c1C[C@H](N)C(=O)N[C@H](c1nc(-c2ccccc2)c[nH]1)C(C)C         2
 6  N[C@@H](Cc1ccc(O)cc1)C(=O)N(Cc1nc(-c2ccccc2)c[nH]1)C1CCCCC1         2
 7  Cc1cc(O)cc(C)c1C[C@H](N)C(=O)N(Cc1nc(-c2ccc(F)cc2)c(C)[nH]1)C(C)C         0
 8  COc1ccc(CN(C(=O)[C@@H](N)Cc2ccc(O)cc2)[C@@H](C)c2nc(-c3ccccc3)c[nH]2)cc1C(N)=O         1
 9  COc1ccc(CN(C(=O)[C@@H](N)Cc2c(C)cc(C(N)=O)cc2C)[C@@H](C)c2nc(-c3ccccc3)c[nH]2)cc1C(=O)NCCO         0
10  COc1ccc(CN(C(=O)[C@@H](N)Cc2c(C)cc(C(N)=O)cc2C)[C@@H](C)c2nc(-c3cccc(Br)c3)c[nH]2)cc1C(=O)O         0
11  Cc1cc(O)cc(C)c1C[C@H](N)C(=O)N(Cc1nc(-c2ccccc2)c[nH]1)CC1CC1         0
12  Cc1cc(C(N)=O)cc(C)c1C[C@H](N)C(=O)N(Cc1ccccc1C(=O)O)[C@@H](C)c1nc(-c2ccccc2)c[nH]1         1
13  CCN(C(=O)[C@@H](N)Cc1ccc(O)cc1)[C@@H](C)c1nc(-c2ccccc2)c[nH]1         2
14  COc1ccc(CN(C(=O)[C@@H](N)Cc2c(C)cc(C(N)=O)cc2C)[C@@H](C)c2nc(-c3ccc(Cl)cc3)c(C)[nH]2)cc1C(=O)O         0
15  COc1ccc(CN(C(=O)[C@@H](N)Cc2ccc(O)cc2)[C@@H](C)c2nc(-c3ccccc3)c[nH]2)cc1C(=O)N1CCOCC1         1
16  COc1ccc(CN(C(=O)[C@@H](N)Cc2c(C)cc(C(N)=O)cc2C)[C@@H](C)c2nc(-c3ccccc3C(=O)O)c[nH]2)cc1OC         1
17  C[C@H](c1nc(-c2ccccc2)c[nH]1)N(C)C(=O)[C@@H](N)Cc1ccc(O)cc1         2
18  COC(=O)c1cc(CN(C(=O)[C@@H](N)Cc2c(C)cc(C(N)=O)cc2C)[C@H](C)c2nc(-c3ccccc3)c[nH]2)ccc1OC         1
19  Cc1cc(C(N)=O)cc(C)c1C[C@H](N)C(=O)N(Cc1ccc(C(=O)O)o1)[C@@H](C)c1nc(-c2ccccc2)c[nH]1         0
20  COC(=O)c1cc(CN(C(=O)[C@@H](N)Cc2ccc(O)cc2)[C@@H](C)c2nc(-c3ccccc3)c[nH]2)ccc1OC         0
21  CN[C@@H](Cc1ccc(O)cc1)C(=O)N(Cc1ccc(OC)c(C(=O)O)c1)[C@@H](C)c1nc(-c2ccccc2)c[nH]1         1
22  CC(C)N(Cc1nc(-c2ccccc2)c[nH]1)C(=O)[C@@H](N)Cc1ccc(O)cc1         2
23  Cc1cc(O)cc(C)c1C[C@H](N)C(=O)N(Cc1nc(-c2ccccc2)c[nH]1)C(C)C         1
24  C[C@@H](c1nc(-c2ccccc2)c[nH]1)N(C)C(=O)[C@@H](N)Cc1ccc(O)cc1         2
25  CCN(C(=O)[C@@H](N)Cc1c(C)cc(O)cc1C)[C@@H](C)c1nc(-c2ccccc2)c[nH]1         0
26  C[C@@H](c1nc(-c2ccccc2)c[nH]1)N(C)C(=O)[C@@H](N)Cc1ccc(C(N)=O)cc1         1
